System: MDA-MB-435
RUN_DESCRIPTION: NCI tumour cell line growth inhibition, 48 h
Active and inactive are the calls of the source. Rule as the data show it: active = GI50 up to about 1.1 µM and inactive = higher.
Choose the fitting class; nothing outside active, inactive is accepted.

Observe how each entry below is paired with its result.
O=C1C(c2c(O)[nH]c3ccc([N+](=O)[O-])cc23)=Nc2ccccc21: inactive
O=C(Nc1ccc(Cl)c(C(F)(F)F)c1)C(=O)c1c(O)c2ccccc2oc1=O: inactive
O=C1NC(=O)/C(=C/c2ccc(S(=O)(=O)N/N=C/c3ccccc3)cc2)N1: inactive
O=c1c2sc3ccccc3sc=2c(=O)c2c(Cl)c(Cl)c(Cl)c(Cl)c12: inactive
O=c1[nH]cc(NCCCl)c(=O)[nH]1: inactive
Cc1cc(NC2=NCCO2)c2c(c1C)CCCC2: inactive

As a next step, examine the compound that follows.
Give the logged outcome of this assay for the following compound: CC1CCC2(CC1)NC1=C(CC(C)CC1)C1=C2CC(C)CC1 (configuration not stated)
inactive
